Would you mind telling me the reported TGI of each entry?
# Tested on: MDA-MB-231 breast
# procedure-text: NCI tumour cell line growth inhibition, 48 h

Previously resolved entries follow.
molecule: CCN(CC)S(=O)(=O)c1ccc2nc(NC(=O)OC)[nH]c2c1
test-system: MDA-MB-231 breast
value: > 100 µM
--
molecule: CC(=O)Oc1cc2oc(=O)cc(C)c2cc1OC(C)=O
test-system: MDA-MB-231 breast
value: > 100 µM
--
molecule: COc1cc(/C=C2/SC(c3ccccc3)N(c3cc(Cl)ccc3Cl)C2=O)cc(OC)c1OC (stereo not given)
test-system: MDA-MB-231 breast
value: > 100 µM

Give TGI for each of the items listed below.
1. O=S(CCc1ccccc1)Nc1ccccc1 (stereo not given)
2. O=C(N/N=C\c1c(O)ccc2ccccc12)c1ccncc1
3. O=S(=O)(c1ccccc1)[C@H]1[C@@H]2O[C@@H]2C[C@@H]1O
4. CCCCCC(=O)n1[nH]c(=O)n(-c2ccc(OC)cc2)c1=O
5. CC(C)Sc1nncc(/C(N)=N/O)n1
6. Clc1ccc(Cl)c(NNc2cc(Cl)ccc2Cl)c1
7. CC(C)(NO)/C(=N\O)c1ccco1

Out:
["> 100 µM", "> 5.71 µM", "> 100 µM", "> 100 µM", "> 100 µM", "> 10 µM", "> 100 µM"]
